# Tested on: HeLa
# Assay Details: In vitro cytotoxicity against HeLa S3 cell lines, treated for 3 days then uptake of neutral red dye was measured
# Assay type: functional, cell-based
# Condition Set: Homo sapiens, 72 h
pIC50: −log10 of the molar value.
Experimental Endpoint: pIC50

{"Compound Smiles": "CS(=O)(=O)c1c(F)c(N)c2c(=O)cc(-c3ccc(N)c(F)c3)oc2c1F", "pIC50": "< 4.00"}
{"Compound Smiles": "Nc1ccc(-c2cc(=O)c3c(N)c(F)cc(F)c3o2)cc1F", "pIC50": "< 4.00"}
{"Compound Smiles": "CCCOCc1c(F)c(N)c2c(=O)cc(-c3ccc(N)c(F)c3)oc2c1F", "pIC50": 4.11}

Send back HeLa pIC50 of Nc1ccc(-c2cc(=O)c3c(N)c(F)c(O)c(F)c3o2)cc1F only.
< 4.00

Recall the reported pIC50 of NCc1c(F)c(N)c2c(=O)cc(-c3ccc(N)c(F)c3)oc2c1F on HeLa and write it down.
5.06

Reference for the values: ChEMBL document CHEMBL1131243
